system: SMMC-7721; assay: Cytotoxicity against human SMMC-7721 cells assessed as reduction in cell viability after 48 hrs by MTS assay; format: functional, cell-based; conditions: SMMC-7721, 48 h
REPORTED ENDPOINT: pIC50
pIC50 here is simply -log10 of the concentration when that concentration is written in mol/L.

Return value of pIC50 for input "COc1cc(C)c2c3c(c(=O)oc2c1)C[C@@H]([C@@]1(C)CC[C@H]2C(C)(C)[C@@H](O)CC[C@@]21C)O3" , no commentary.
5.43

* * *

Items are presented alongside their recorded IC50.
test system: HL-60; assay: Cytotoxicity against human HL-60 cells assessed as reduction in cell viability after 48 hrs by MTS assay; assay type: functional, cell-based; conditions: HL-60, 48 h

> print(dat)
                      smiles.representation  measured.result
1  COc1cc(C)c2c3c(c(=O)oc2c1)C[C@@H]([C@@]1(C)CC[C@H]2C(C)(C)[C@@H](O)CC[C@@]21C)O3           3.6 µM

Shift focus to the following entry.
Give IC50 for the following compound: "COc1cc(C)c2c3c(c(=O)oc2c1)C[C@@H]([C@@]1(C)CC[C@H]2C(C)(C)C(=O)CC[C@@]21C)O3"
> 40 µM

* * *

system: SW480; experiment: Cytotoxicity against human SW480 cells assessed as reduction in cell viability after 48 hrs by MTS assay; type: functional, cell-based; conditions: SW480, 48 h
REPORTED ENDPOINT: IC50 (µM)
# output: bare number, implied unit µM

Entry "COc1cc(C)c2c3c(c(=O)oc2c1)C[C@@H]([C@@]1(C)CC[C@H]2C(C)(C)[C@@H](O)CC[C@@]21C)O3" needs its IC50 filled in; supply it.
27.1
